Origin of the recorded values: patent US20080063646A1

Biological target: T1, recombinant human IP-10 (R&D Systems) (human, UniProt P02778 22-98)
T1 sequence: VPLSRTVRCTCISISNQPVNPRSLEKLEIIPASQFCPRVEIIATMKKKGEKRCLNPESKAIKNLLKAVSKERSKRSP
Assay: cell-based or functional assay
Reported values of IC50 of inhibition of chemotaxis, donor 1012 for individual entries
// return numeric value only (unit: mg/L, not printed)

Below, each entry is followed by its recorded IC50 of inhibition of chemotaxis, donor 1012 result.
humanized monoclonal antibody HuAIP13 (antibody, IgG1, V domains shown) VH: EVQLVQSGAEVKKPGATVKISCKVSGYTFTDYSMHWVRQAPGKGLKWMGWINTEIGEPTYADDFKGRFTFTLDTSTSTAYMELSSLRSEDTAVYYCARNYDYDAYFDVWGQGTTVTVSS VL: DIQMTQSPSSLSASVGDRVTITCKADQDINKYIAWYQQKPGKAPKLLLHHTSTLQPGIPSRFSGSGSGRDYTFTISSLQPEDIATYYCLQYDSLLFTFGQGTKLEIK    0.077
murine monoclonal antibody AIP13 (antibody, V domains shown, Mouse hybridoma antibody; Mouse IgG1/kappa is used as its isotype control; also called MuAIP13) VH: QIQLVQSGPELKKPGETVKISCKASGYTFTDYSMHWVKQAPGKGLKWMGWINTEIGEPTYADDFKGRFAFSLETSASTAYLQINNLKNEDTATYFCARNYDYDAYFDVWGAGTTVTVSS VL: DIQMTQSPSSLSASLGGKVTITCKADQDINKYIAWYQHKPGRGPRLLLHHTSTLQPGIPSRFSGSGSGRDYSFSISNLEPADIATYYCLQYDSLLFTFGSGTKLEIK    0.084

For the next question, use this binder.
Form field: reported IC50 of inhibition of chemotaxis, donor 1012 of humanized monoclonal antibody HuAIP12 (antibody, IgG1, V domains shown) VH: EVQLVQSGAEVKKPGATVKISCKVSGYTFTDYSMHWVRQAPGKGLKWMGWINTETGEPTYADDFKGRFTFTLDTSTSTAYMELSSLRSEDTAVYYCARNYDYDGYFDVWGQGTTVTVSS VL: DIQMTQSPSSLSASVGDRVTITCKASQDINKYIAWYQQKPGKAPKLLIHYTSTLQPGIPSRFSGSGSGRDYTFTISSLQPEDIATYYCLQYDNLLFTFGQGTKLEIK
0.073
